Target: T1, TNF-alpha (human, UniProt P01375 77-233)
T1 construct: also called TNFα; TNF-α
T1 sequence (P01375 77-233 limits assumed): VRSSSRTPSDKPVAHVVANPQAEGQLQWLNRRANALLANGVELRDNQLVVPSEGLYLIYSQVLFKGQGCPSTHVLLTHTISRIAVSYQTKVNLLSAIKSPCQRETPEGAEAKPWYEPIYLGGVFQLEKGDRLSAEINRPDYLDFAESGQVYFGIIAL
Experiment: phage ELISA
reportedMetric: binding result

| binder | recordedValue |
| --- | --- |
| I064C04 (scFv) scFv: QVQLVQSGAEVKKPGASVKVSCEASGYTFTSYGISWVRQAPGQGLEWMGWISTYNGNTRYPQKLQGRVTMTTDTSTSTAYMDLRSLRSDDTAVYYCARDGRLSYDILTGYYARDYYGMDDWGRGTMVTVSSGGGGSGGGGSGGGGSQSVLTQPASVSGSPGQSITISCTGTSSDVGGYNYVSWYQQHPGKAPKLMIYEGSKRPSGVSNRFSGSKSGNTASLTISGLQAEDEADYYCSSYTTRSTRVFGGGTKLTVLG | no binding |
| I006E07 (scFv) scFv: QVQLQQSGAEEKKPGASVKVSCKASGYTFTSYAMHWVRQAPGQRLEWMGWINAGNGNTKYSQKFQGRVAITRDTSASTAYMELSSLRSEDTAVYYCARADYDILTGYSPLTYGMDVWGRGTLVTVSSGGGGSGGGGSGGGGSDIQMTQSPSTLSASIGDRVTITCRASEGIYHWLAWYQQKPGKAPKLLIYKASSLASGAPSRFSGSGSGTDFTLTISSLQPDDFATYYCQQYSNYPLTFGGGTKLEIKR | no binding |
| I018H09 (scFv) scFv: QVQLQQSGAEVKKPGASVKVSCKASGYTFTKYTMHWVRQAPGQGPEWMGWINGGSGDTKYSRKFQGRVTITKDTSASATYMELSSLGSEDTALYYCARATYDPLTGYSFDGFDIWGKGTMVTVSSGGGGSGGGGSGGGGSQSVLTQPASVSGSPGQSITISCTGTSSDVGGYNYVSWYQQHPGKAPKLMIYEGSKRPSGVSNRFSGSKSGNTASLTISGLQAEDEADYYCSSYTTRSTRVFGGGTKLTVLG | no binding |

Value source: patent US20110293610A1
